test system: AGA1 T cell receptor; assay: Selection of yeast-displayed HLA-B5703 peptide library with AGA1 TCR, deep sequencing read counts; type: binding; conditions: after round 1 of selection with AGA1 TCR
EXPERIMENTAL ENDPOINT: number of times the peptide was represented, Rd1
Numbers only.

GSLAPEIRMYW [HLA-B5703 library peptide selected with AGA1 TCR] | 11

Provide the reported number of times the peptide was represented, Rd1 of each entry below, same order.
1. ASFRPELAEFW [HLA-B5703 library peptide selected with AGA1 TCR]
2. WTYRPEVRGVW [HLA-B5703 library peptide selected with AGA1 TCR]
3. KSLAPEVRDLF [HLA-B5703 library peptide selected with AGA1 TCR]
4. NSFRPEVAMKY [HLA-B5703 library peptide selected with AGA1 TCR]
5. RSFYPEIREYW [HLA-B5703 library peptide selected with AGA1 TCR]

1. 11
2. 21
3. 8
4. 7
5. 19
